B1: FBXO3 (parent)
chain: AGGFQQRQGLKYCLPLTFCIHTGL

variants of: B1; assay: protein stability index of a GFP-peptide fusion (GPS, HEK-293T) (PSI 1-6); higher = more stable; settings: c terminus: a fixed tail appended;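 note: lentivirally expressed fusions sorted by FACS into six bins by GFP to DsRed ratio, PSI derived from sequencing read proportions per bin multiplied by bin number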
Label condition not met if protein stability index falls below 3; label condition met in every other case.

# Mutation key, Assigned label
records = [
    ("G9N", "condition not met"),
    ("T17G", "condition not met"),
    ("F18S", "condition not met"),
    ("T17P", "condition not met"),
    ("C13Y", "condition not met"),
    ("C19Y", "condition not met"),
    ("T17V", "condition met"),
    ("F4Y", "condition not met"),
    ("L10M", "condition not met"),
    ("L16D", "condition not met"),
    ("G3K", "condition not met"),
    ("R7F", "condition met"),
    ("F18K", "condition not met"),
    ("Q5V", "condition not met"),
    ("Y12S", "condition met"),
    ("I20T", "condition not met"),
    ("C13D", "condition not met"),
    ("L16Y", "condition not met"),
    ("T22S", "condition met"),
    ("I20P", "condition not met"),
    ("G9L", "condition met"),
    ("H21S", "condition not met"),
    ("H21M", "condition not met"),
    ("L24N", "condition not met"),
    ("L14C", "condition met"),
    ("L14E", "condition not met"),
    ("C13M", "condition not met"),
    ("L14P", "condition not met"),
    ("G3N", "condition met"),
    ("F18A", "condition not met"),
    ("R7I", "condition not met"),
    ("L10F", "condition not met"),
    ("Q6E", "condition met"),
    ("C13A", "condition not met"),
    ("G9I", "condition not met"),
    ("R7S", "condition not met"),
    ("T17M", "condition met"),
    ("T17H", "condition met"),
    ("G23A", "condition met"),
    ("L24V", "condition met"),
    ("G2R", "condition not met"),
    ("A1W", "condition met"),
]
